molecular target: Recombinant human c-KIT kinase (Homo sapiens (Human)); assay: c-KIT kinase chemiluminescence assay (ADP-Glo); conditions: ATP 50 μM
Sequence (P10721 26-976): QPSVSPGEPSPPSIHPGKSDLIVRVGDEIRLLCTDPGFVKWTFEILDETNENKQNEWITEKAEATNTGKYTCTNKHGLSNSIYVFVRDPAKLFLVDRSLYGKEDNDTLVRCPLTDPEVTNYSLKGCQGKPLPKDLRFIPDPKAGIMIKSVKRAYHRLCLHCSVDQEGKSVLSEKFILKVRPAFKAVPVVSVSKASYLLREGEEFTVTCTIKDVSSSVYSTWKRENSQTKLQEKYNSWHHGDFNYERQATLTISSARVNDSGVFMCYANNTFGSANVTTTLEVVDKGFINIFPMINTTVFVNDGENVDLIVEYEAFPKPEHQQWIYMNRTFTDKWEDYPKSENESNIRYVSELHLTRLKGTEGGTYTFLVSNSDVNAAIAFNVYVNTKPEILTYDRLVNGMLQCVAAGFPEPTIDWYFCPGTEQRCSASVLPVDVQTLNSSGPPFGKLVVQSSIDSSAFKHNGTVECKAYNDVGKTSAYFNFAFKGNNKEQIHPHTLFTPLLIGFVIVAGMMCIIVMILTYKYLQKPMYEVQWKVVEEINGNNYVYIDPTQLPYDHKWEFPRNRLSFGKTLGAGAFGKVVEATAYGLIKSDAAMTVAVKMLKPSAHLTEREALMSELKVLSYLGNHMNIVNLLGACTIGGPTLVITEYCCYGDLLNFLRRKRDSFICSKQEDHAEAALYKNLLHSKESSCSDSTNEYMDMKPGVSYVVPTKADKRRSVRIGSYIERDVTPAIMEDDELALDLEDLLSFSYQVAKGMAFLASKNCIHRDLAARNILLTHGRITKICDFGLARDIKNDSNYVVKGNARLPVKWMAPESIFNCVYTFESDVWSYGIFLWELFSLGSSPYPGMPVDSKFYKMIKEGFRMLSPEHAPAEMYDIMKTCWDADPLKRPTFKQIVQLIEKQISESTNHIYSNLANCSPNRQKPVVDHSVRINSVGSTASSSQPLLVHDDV
pIC50: −log10 of the molar value.
In this section we review reported pIC50 values for a set of compounds.

These recorded examples may help you get a feel for the data.
Cc1ncc(-c2nnn(CC(F)(F)F)n2)cc1NC(=O)c1cnn2ccc(N3CC4(C3)CC(O)(C(F)F)C4)cc12; < 6.00
CC(=O)N1CC(Oc2ccn3ncc(C(=O)Nc4cc(-c5noc([C@H]6C[C@@H]6F)n5)ccc4C)c3c2)C1; 6.00 to 7.00
COC1CC2(C1)CN(c1ccn3ncc(C(=O)Nc4cc(-c5noc([C@H]6C[C@@H]6F)n5)ccc4C)c3c1)C2; > 7.00
Cc1ccc(-c2cnc(C3CC3)nc2)cc1NC(=O)c1cnn2ccc(N3CC4(COC4)C3)cc12; > 7.00
Cc1ccc(-c2ncc(C3CC3)cn2)cc1NC(=O)c1cnn2cc(-c3cn(C(F)F)nn3)ccc12; > 7.00

q: Look up pIC50: Cc1ccc(-c2noc([C@H]3C[C@@H]3F)n2)cc1NC(=O)c1cnn2ccc(-c3cnn(C(C)(C)CO)c3)cc12
a: > 7.00

q: Try this compound too: Cc1ccc(-c2ncc(C3CC3)cn2)cc1NC(=O)c1cnn2ccc(N3CC4(C3)CC(O)(C(F)F)C4)cc12
a: > 7.00
